Attribution: patent US4883807A

# System: Tetranyhus urticae (spider mites - ova)
# PROTOCOL_SUMMARY: whole plant or invertebrate
# STATED_CONDITIONS: 144 h, read-out: grading of mortality, TUe
OBSERVED_PROPERTY: mortality at 500 ppm

>>> endpoint_value("C=CCO/N=C/c1cccn1/C(=C\\OC)C(=O)OC [Compound 3 of Table I]")
"< 50%"
>>> endpoint_value("CO/C=C(/C(=O)OC)n1cccc1/C=N\\OC [Compound 2 of Table I]")
"< 50%"
>>> endpoint_value("CO/C=C(/C(=O)OC)n1cccc1/C=C/C(=O)OC")
"< 50%"

// next item, mortality at 500 ppm requested
State its mortality at 500 ppm on Tetranyhus urticae (spider mites - ova): C#CCO/N=C/c1cccn1/C(=C\OC)C(=O)OC [Compound 7 of Table I] < 50%
